// data source = ChEMBL document CHEMBL1138645

pKi data for Carbonic anhydrase 2 (Homo sapiens) follow.
pKi: −log10 of the molar value.

{"molecule": "O=C([O-])P(=O)([O-])[O-].[Na+].[Na+].[Na+] [FOSCARNET SODIUM]", "system.name": "Carbonic anhydrase 2 (Homo sapiens)", "pKi": 1.85}
{"molecule": "O=C[O-].[Na+] [SODIUM FORMATE]", "system.name": "Carbonic anhydrase 2 (Homo sapiens)", "pKi": 1.62}
{"molecule": "NC(=O)OP(=O)([O-])[O-].[Na+].[Na+] [CARBAMOYL PHOSPHATE; DI SODIUM]", "system.name": "Carbonic anhydrase 2 (Homo sapiens)", "pKi": 3.51}
